substrate: CCCCCCC=O; assay: purified protein; type: biochemical, Synechococcus elongatus; details: NADH 750 uM, PMS 75 uM, catalase 1 mg/ml, ferrous ammonium sulfate 80 uM, 100 mM HEPES pH 7.2, 100 mM KCl
Assay metric: kcat/Km (M⁻¹ s⁻¹)
Give the value in M⁻¹ s⁻¹ but do not write M⁻¹ s⁻¹ after it.

cADO-1593 (1593) (Synechococcus elongatus PCC 7942 = FACHB-805; F150Y/Q49H) (protein, codon-optimised synthetic gene, E. coli BL21(DE3), nickel column; apo enzyme reconstituted with stoichiometric ferrous iron (diferrous form)) MPQLEASLELDFQSESYKDAYSRINAIVIEGEQEAFDNYNRLAEMLPDHRDELHKLAKMEQRHMKGFMACGKNLSVTPDMGFAQKFFERLHENFKAAAAEGKVVTCLLIQSLIIECFAIAAYNIYIPVADAFARKITEGVVRDEYLHRNYGEEWLKANFDASKAELEEANRQNLPLVWLMLNEVADDARELGMERESLVEDFMIAYGEALENIGFTTREIMRMSAYGLAAV; 44

Pending protein:
Query: Which kcat/Km is listed for cADO-1593 (1593) (Synechococcus elongatus PCC 7942 = FACHB-805; F150Y/N123H/Q49H) (protein, codon-optimised synthetic gene, E. coli BL21(DE3), nickel column; apo enzyme reconstituted with stoichiometric ferrous iron (diferrous form)) MPQLEASLELDFQSESYKDAYSRINAIVIEGEQEAFDNYNRLAEMLPDHRDELHKLAKMEQRHMKGFMACGKNLSVTPDMGFAQKFFERLHENFKAAAAEGKVVTCLLIQSLIIECFAIAAYHIYIPVADAFARKITEGVVRDEYLHRNYGEEWLKANFDASKAELEEANRQNLPLVWLMLNEVADDARELGMERESLVEDFMIAYGEALENIGFTTREIMRMSAYGLAAV ?
Result: 49.5
